molecular target: human IL-1beta (human, UniProt P01584 117-269); assay: SPR (BIAcore); antibody captured by anti-Fc, IL-1beta injected
pKd: −log10 of the molar value.
# maps each entry to its pKd

Binder	pKd
huH34-1 (antibody, V domains shown, VH = 01 and VL = 16 read by analogy with huH34-2 (VH 06, VL 16); Humanized) VH: QVQLVQSGAEVKKPGASVKVSCKASGYTFTGYYMHWVRQAPGQGLEWMGYISSYSGFTTYAQKFQGRVTMTRDTSISTAYMELSRLRSDDTAVYYCARSDYYGTSLYWGQGTLVTVSS VL: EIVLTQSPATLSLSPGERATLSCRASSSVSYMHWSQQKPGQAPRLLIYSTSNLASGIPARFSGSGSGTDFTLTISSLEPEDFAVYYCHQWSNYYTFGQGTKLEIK	8.99
H34 + C52aS mutations (antibody, V domains shown) VH: EVQLQQSGPELVKTGASVKISCKASGYSFTGYYMHWVKQSHGKSLEWIGYISSYNAFTTYNQRFRGKATFTVDTSSSTAYMQFNSLTSEDSAVYYCVRSDYYGTSLYWGQGTTLTVSS VL: QIVLTQSPAIMSASLGEEITLTCSASSSVSYMHWSQQKSGSSPKLLIYSTSNLASGVPSRFSGSGSGTFYSLTISSVEAEDAADYYCHQWSNYYTFGGGTKLEIK	9.40
Canakinumab (antibody, V domains shown) VH: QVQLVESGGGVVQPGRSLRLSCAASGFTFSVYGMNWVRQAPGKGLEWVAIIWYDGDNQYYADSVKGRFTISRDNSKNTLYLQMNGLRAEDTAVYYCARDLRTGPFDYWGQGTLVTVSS VL: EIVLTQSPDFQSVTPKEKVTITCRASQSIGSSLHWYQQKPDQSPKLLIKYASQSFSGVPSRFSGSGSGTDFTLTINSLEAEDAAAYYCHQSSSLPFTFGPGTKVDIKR	10.70
huH34-3 (antibody, V domains shown, VH = 11 and VL = 16 read by analogy with huH34-2) VH: QVQLVQSGAEVKKPGASVKVSCKASGYTFTGYYMHWVRQAPGQGLEWIGYISSYSAFTTYNQKFRGRATFTVDTSISTAYMELSRLRSDDTAVYYCVRSDYYGTSLYWGQGTLVTVSS VL: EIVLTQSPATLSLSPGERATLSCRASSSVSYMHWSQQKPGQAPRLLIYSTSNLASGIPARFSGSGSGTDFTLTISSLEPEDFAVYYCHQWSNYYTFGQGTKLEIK	9.82
